- tested system: γ-secretase (Homo sapiens)
- Construct: endogenous in cells; host or cells: SKNBE2 cells carrying APP 695 wild type
- assay overview: Screening for γ-secretase-modulating activity in SKNBE2 cells carrying the APP 695 wild type
- Assay type: cell-based
- run conditions: SKNBE2 cells carrying APP 695 wild type
reported metric: pEC50
Expect pEC50 as a plain number equal to -log10 of the molar concentration.

Illustrative cases are given below, each with its answer.
CC(C)CCN(Cc1cc(-c2ccc(C(F)(F)F)cc2)cc([C@@H](CC(C)C)C(=O)O)c1)c1ccc(C(F)(F)F)cc1 :: 6.60
CC(C)CCN(Cc1ccc(C(F)(F)F)cc1)Cc1cc(CC(=O)O)cc(-c2ccc(C(F)(F)F)cc2)c1 :: 6.23
CC(C)CC(C(=O)O)c1cc(-c2ccc(C(F)(F)F)cc2)cc(N(C)c2ccc(Cl)cc2)c1 (single isomer, unassigned) [Example 22] :: 5.67

Turning now to a further record.
Recorded result, CC(C)CCN(Cc1cc(-c2ccc(C(F)(F)F)cc2)cc(C(CC(C)C)C(=O)O)c1)Cc1cccc(C(F)(F)F)c1 (stereo not shown) , pEC50: 6.41
